Some compounds, each annotated with its measured pIC50.
target_desc: full-length human PKCι (Homo sapiens)
Construct: Recombinant, full-length human PKCι expressed in Sf21 insect cells is also commercially available; purchased; host or cells: Sf21 insect cells
Sequence (P41743 whole entry): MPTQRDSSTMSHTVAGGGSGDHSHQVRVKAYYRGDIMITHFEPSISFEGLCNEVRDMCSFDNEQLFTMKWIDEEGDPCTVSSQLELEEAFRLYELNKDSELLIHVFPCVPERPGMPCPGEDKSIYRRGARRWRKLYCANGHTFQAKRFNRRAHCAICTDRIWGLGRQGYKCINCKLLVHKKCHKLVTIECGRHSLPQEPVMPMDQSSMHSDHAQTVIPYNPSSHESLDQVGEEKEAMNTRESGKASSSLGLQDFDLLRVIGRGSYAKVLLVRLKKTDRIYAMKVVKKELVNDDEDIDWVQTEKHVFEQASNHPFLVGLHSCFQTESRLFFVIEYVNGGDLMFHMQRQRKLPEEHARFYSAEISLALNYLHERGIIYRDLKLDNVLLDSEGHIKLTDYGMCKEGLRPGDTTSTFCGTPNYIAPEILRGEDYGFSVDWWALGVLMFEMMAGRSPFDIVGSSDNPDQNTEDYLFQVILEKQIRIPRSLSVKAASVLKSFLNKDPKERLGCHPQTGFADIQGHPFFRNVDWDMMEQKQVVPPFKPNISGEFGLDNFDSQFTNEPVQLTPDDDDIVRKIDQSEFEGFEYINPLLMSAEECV
procedure_details: PKCι IC50 IMAP fluorescence polarisation assay, full-length enzyme
Type: biochemical
test_settings: full length PKCi at 15 μM ATP; read-out: IC50 in IMAP assay against full length PKCi
pIC50: −log10 of the molar value.

Below are worked cases with known answers.
compound=COc1cccc(-c2c(C(C)(C)C)sc3c(NC[C@@H](N)Cc4ccccc4)nc(-c4ccncc4)nc23)c1 result="4.40 to 5.00"
compound=COc1cccc(OC(C)C)c1-c1c(C)sc2c(NC[C@@H](N)Cc3ccccc3)nc(-c3ccncc3)nc12 result="4.40 to 5.00"
compound=Cc1[nH]ncc1-c1nc(N[C@@H]2CCNC2)c2sccc2n1 result="4.40 to 5.00"
compound=Cc1ccc(-c2csc3c(NC[C@@H](N)Cc4ccccc4)nc(-c4ccncc4)nc23)o1 result="5.00 to 6.00"
compound=C#Cc1csc2c(NC[C@@H](N)Cc3ccccc3)nc(-c3ccncc3)nc12 result="> 7.00"

Challenge: Form field: reported pIC50 of N[C@H](CNc1nc(-c2ccncc2)nc2c(-c3ccccc3)csc12)Cc1ccccc1
Response given: 6.00 to 7.00

Challenge: What value of pIC50 has been recorded for this entry: Cc1[nH]ncc1-c1nc(NC[C@@H](N)Cc2ccccc2)c2sccc2n1
Response given: 5.00 to 6.00

Challenge: Given the entry N[C@H](CNc1nc(-c2ccncc2)nc2c(C#CCO)csc12)Cc1ccccc1 , report its measured pIC50.
Response given: > 7.00

Challenge: Recorded pIC50 for NC(CNc1nc(-c2ccncc2F)nc2c(-c3ccc(CO)cc3)csc12)Cc1ccccc1 (stereo in doubt) , please?
Response given: 5.00 to 6.00

Challenge: pIC50 for Fc1ccc(Nc2csc3c(N[C@@H]4CCNC4)nc(-c4ccncc4F)nc23)cc1 ?
Response given: 4.40 to 5.00

Challenge: Would you kindly share the measured pIC50 for N#Cc1ccc(Nc2cc(-c3nc(N[C@@H]4CCNC4)c4sccc4n3)ccn2)cc1 ?
Response given: 5.00 to 6.00

* * *

target_desc: kinase-domain human PKCι (Homo sapiens, UniProt P41743)
Construct: Recombinant, kinase-domain human PKCι is expressed and purified in-house; made in house
Sequence (P41743 254-522 limits assumed): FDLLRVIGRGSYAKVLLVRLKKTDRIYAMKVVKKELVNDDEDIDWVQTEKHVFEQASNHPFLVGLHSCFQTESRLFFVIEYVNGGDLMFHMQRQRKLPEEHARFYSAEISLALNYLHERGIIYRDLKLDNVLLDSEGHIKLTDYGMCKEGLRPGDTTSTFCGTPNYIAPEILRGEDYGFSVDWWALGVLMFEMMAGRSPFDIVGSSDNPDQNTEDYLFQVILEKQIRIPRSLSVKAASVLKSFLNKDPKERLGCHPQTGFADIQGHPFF
procedure_details: PKCι IC50 IMAP fluorescence polarisation assay, kinase-domain enzyme
Format: biochemical
test_settings: kinase domain PKCi at 2 μM ATP; read-out: IC50 in IMAP assay against kinase domain PKCi (Activity)
In this section, each of the molecules is paired with its reported IC50.

Here are 4 molecules together with their reported answers.
compound_string=CN(C)CCNc1nc(-c2ccncc2)nc2sc3c(c12)CCCC3 result="1 to 10 µM"
compound_string=N[C@@H](COc1nc(-c2ccncc2)nc2sc3c(c12)CCCC3)Cc1ccccc1 result="10 to 40 µM"
compound_string=CCCCN1CCN(c2nc(-c3ccncc3)nc3sc4c(c23)CCCC4)CC1 result="10 to 40 µM"
compound_string=Cc1sc2nc(-c3ccncc3)nc(NCCN)c2c1-c1ccccc1 result="1 to 10 µM"

Challenge: Write down the reported IC50 of c1cncc(CN2CCN(c3nc(-c4ccncc4)nc4sc5c(c34)CCCC5)CC2)c1 , test system: kinase-domain human PKCι (Homo sapiens, UniProt P41743).
Response given: 10 to 40 µM

Challenge: Please state recorded IC50 (tested on kinase-domain human PKCι (Homo sapiens, UniProt P41743)) of N[C@@H](COc1nc(-c2ccncc2)nc2sc3c(c12)CCCC3)Cc1cccc2ccccc12
Response given: 1 to 10 µM

Challenge: Hello, I am looking for reported IC50 with kinase-domain human PKCι (Homo sapiens, UniProt P41743) for c1cc(CN2CCN(c3nc(-c4ccncc4)nc4sc5c(c34)CCCC5)CC2)ccn1 . Could you help?
Response given: 1 to 10 µM

Challenge: Observed IC50 on kinase-domain human PKCι (Homo sapiens, UniProt P41743) for N[C@H](COc1nc(-c2ccncc2)nc2sc3c(c12)CCCC3)Cc1cccs1 , please.
Response given: 1 to 10 µM

Challenge: kinase-domain human PKCι (Homo sapiens, UniProt P41743) / IC50 / CC(C)c1cc2c(NC[C@@H](C)N)nc(-c3ccncc3)nc2s1 : value?
Response given: 10 to 40 µM

Challenge: Give IC50 (kinase-domain human PKCι (Homo sapiens, UniProt P41743)) of the following molecule: N[C@H](COc1nc(-c2ccncc2)nc2sc3c(c12)CCCC3)C1CCCCC1
Response given: 1 to 10 µM

Challenge: # value lookup — system kinase-domain human PKCι (Homo sapiens, UniProt P41743), readout IC50, item N[C@H](COc1nc(-c2ccncc2)nc2sc3c(c12)CCCC3)Cc1csc2ccccc12
Response given: 10 to 40 µM
